target: Fibroblast growth factor 2 (Homo sapiens) (UniProt P09038); experiment: FGF2 binders on small-molecule microarrays, primary screen, biochemical, small-molecule microarray, 635/667 nm fluorescence (AID 1133); details: small-molecule microarray binding, FGF2, fluorescence 635/667; higher = more signal
Sequence (P09038 whole entry, looked up): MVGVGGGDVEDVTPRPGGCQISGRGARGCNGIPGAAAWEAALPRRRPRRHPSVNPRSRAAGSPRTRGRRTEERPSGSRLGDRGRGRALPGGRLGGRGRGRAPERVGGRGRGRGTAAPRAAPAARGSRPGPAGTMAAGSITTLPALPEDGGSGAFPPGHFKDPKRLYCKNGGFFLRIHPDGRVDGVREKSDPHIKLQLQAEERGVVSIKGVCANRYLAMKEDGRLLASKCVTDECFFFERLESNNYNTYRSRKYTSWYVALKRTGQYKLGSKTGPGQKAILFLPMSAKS
assay endpoint: composite z-score

| compound | test system | assay endpoint | data value |
| --- | --- | --- | --- |
| COC(=O)[C@@]1(Cc2ccc(F)cc2)[C@H]2c3cc(C(=O)N4CCCC4)n(CCO)c3C[C@H]2CN1C(=O)c1ccccc1 | Fibroblast growth factor 2 (Homo sapiens) (UniProt P09038) | composite z-score | -0.862 |
| COCCOC(=O)N1C(=O)[C@@]2(c3cc(C#CC4=CCCCC4)ccc31)[C@H](C(=O)N1CCc3cc(OC)c(OC)cc3C1)[C@H]1C(=O)O[C@H](c3ccccc3)[C@H](c3ccccc3)N1[C@@H]2c1ccc(O)cc1 | Fibroblast growth factor 2 (Homo sapiens) (UniProt P09038) | composite z-score | 0.998 |
| COCCOC(=O)N1C(=O)[C@@]2(c3cc(C#CCC(C(=O)OC)C(=O)OC)ccc31)[C@H](c1ccc(OCCO)cc1)N1[C@H](c3ccccc3)[C@H](c3ccccc3)OC(=O)[C@H]1[C@@H]2C(=O)N1CCCCCCC1 | Fibroblast growth factor 2 (Homo sapiens) (UniProt P09038) | composite z-score | 0.614 |
| CCOC(=O)C[C@H]1[C@H](OC(=O)c2ccc(-c3ccccc3)cc2)[C@@H](NC(=O)CC(C)C)c2cc(OCCCO)ccc2N1C(=O)Cc1ccc(OC)cc1 | Fibroblast growth factor 2 (Homo sapiens) (UniProt P09038) | composite z-score | 0.0007 |
| O=C1NC(=O)C2C1C=CC(C(O)c1ccc(F)cc1)N2Nc1ccccn1 (stereo unspecified) | Fibroblast growth factor 2 (Homo sapiens) (UniProt P09038) | composite z-score | 0.0568 |
| COC(=O)C1=CC(CCCO)=CC(C2CC2)N(Cc2cccc(OC(F)(F)F)c2)C=C1C(=O)OC (stereo unspecified) | Fibroblast growth factor 2 (Homo sapiens) (UniProt P09038) | composite z-score | -0.653 |

###

molecular target: Follistatin-related protein 3 (Homo sapiens); assay: FSTL3 binders on small-molecule microarrays, primary screen, biochemical, small-molecule microarray, 635 nm fluorescence (AID 1105); conditions: FSTL3 binding, higher = more signal;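 further: score merges emission near 667 nm and signal to noise per printed spot across three slides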
# composite z-score per record follows
assay endpoint: composite z-score

| compound | assay endpoint | data value |
| --- | --- | --- |
| C=CCOC(=O)[C@H]1[C@@H]2C(=O)O[C@@H](c3ccccc3)[C@@H](c3ccccc3)N2[C@@H](c2ccc(OCCOC(=O)[C@@H]3C[C@@H]4C(=O)N[C@@H](Cc5ccccc5)C(=O)N4[C@@H]3c3ccc(O)cc3)cc2)[C@]12C(=O)Nc1ccccc12 | composite z-score | 0.953 |
| C/C=C/CN(C(=O)C#Cc1ccccc1)[C@H](CO[Si](C)(C)C(C)(C)C)c1ccccc1 | composite z-score | -1.44 |
| C=CCC(OC(C)=O)[C@@H]1[C@@H](N(Cc2ccc(-c3ccccc3)cc2)C(=O)c2cccc3ccccc23)c2cc(OCCCO)ccc2N1C(=O)c1ccc2ccccc2c1 (stereo partly specified) | composite z-score | 0.5 |
| CC[C@H](C)C(=O)O[C@H]1CC[C@]2(C)C3=C(CCC2C1(C)C)[C@]1(C)CC[C@H]([C@H](C)CCCC(C)C)[C@@]1(C)CC3 (stereo partly specified) | composite z-score | 0.487 |
| O=C1OCCC/C=C\[C@H]2OC34C=CCN(Cc5ccccc5)C(=O)[C@H]3N(CCCCCO)C(=O)[C@@H]4C12 (stereo partly specified) | composite z-score | -0.808 |
| C=CCOC(=O)[C@H]1[C@@H]2C(=O)O[C@@H](c3ccccc3)[C@@H](c3ccccc3)N2[C@@H](c2ccc(OCCOC(=O)[C@@H]3C[C@@H]4C(=O)N[C@@H](CC(C)C)C(=O)N4[C@@H]3c3ccc(O)cc3)cc2)[C@]12C(=O)Nc1ccc(I)cc12 | composite z-score | 0.644 |

Provenance of the data: PubChem BioAssay
